Would you kindly list Ratio IC50 for each of these molecules?
# Organism: Homo sapiens
# PROCEDURE SUMMARY: Selectivity factor, ratio of IC50 for human placental 17beta-HSD1 cytosolic fraction to IC50 for placental 17beta-HSD2 microsomal fraction
One number for each entry.

Consider the worked cases shown below.
{"COMPOUND": "COc1cccc(-c2ccc(C(=O)N(C)Cc3cccc(O)c3)s2)c1F", "Ratio IC50": 73}
{"COMPOUND": "Cc1cc(-c2cccc(O)c2)sc1-c1cccc(O)c1", "Ratio IC50": 2}

Give Ratio IC50 for all molecules that follow.
1. CC(C)(C(=O)c1ccc(-c2cccc(O)c2)s1)c1cccc(O)c1
2. CN(Cc1cccc(O)c1)C(=O)c1ccc(-c2cccc(O)c2)s1

Given back:
[1, 14]

Give Ratio IC50 for all molecules that follow.
1. Oc1cccc(-c2cc(-c3cccc(O)c3)c(-c3cccc(O)c3)s2)c1
2. CN(C(=O)c1cc(-c2cccc(O)c2)sc1-c1cccc(O)c1)c1cccc(O)c1

Given back:
[2, 7]

====

Would you kindly list inhibition for each of these molecules?
# TEST TARGET: 17-beta-hydroxysteroid dehydrogenase type 2 (Homo sapiens)
# Sequence (whole entry): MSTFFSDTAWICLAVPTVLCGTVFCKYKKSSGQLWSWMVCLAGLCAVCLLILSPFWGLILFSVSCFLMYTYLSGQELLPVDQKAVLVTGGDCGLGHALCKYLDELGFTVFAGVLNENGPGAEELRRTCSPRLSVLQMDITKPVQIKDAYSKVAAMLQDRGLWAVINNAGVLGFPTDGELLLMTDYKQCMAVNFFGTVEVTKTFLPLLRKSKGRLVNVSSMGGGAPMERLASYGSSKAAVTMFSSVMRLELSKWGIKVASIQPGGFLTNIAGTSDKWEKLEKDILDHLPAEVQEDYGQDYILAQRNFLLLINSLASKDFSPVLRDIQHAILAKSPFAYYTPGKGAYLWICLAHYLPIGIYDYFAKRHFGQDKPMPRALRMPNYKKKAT
# PROCEDURE SUMMARY: Inhibition of human placental 17beta-HSD2 microsomal fraction using tritiated estradiol as substrate assessed as formation of estrone at 1 uM by HPLC analysis relative to control
Answers are plain numbers, in %.

Consider the worked cases shown below.
{"COMPOUND": "O=C(Cc1cccc(O)c1)c1ccc(-c2cccc(O)c2)s1", "TEST TARGET": "17-beta-hydroxysteroid dehydrogenase type 2 (Homo sapiens)", "ASSAY RESULT": 37}
{"COMPOUND": "CC(C)(C(=O)c1ccc(-c2cccc(O)c2)s1)c1cccc(O)c1", "TEST TARGET": "17-beta-hydroxysteroid dehydrogenase type 2 (Homo sapiens)", "ASSAY RESULT": 73}
{"COMPOUND": "CN(C(=O)c1cc(-c2cccc(O)c2)sc1-c1cccc(O)c1)c1cccc(O)c1", "TEST TARGET": "17-beta-hydroxysteroid dehydrogenase type 2 (Homo sapiens)", "ASSAY RESULT": 74}

Now look at this entry.
Value of inhibition reported for the molecule COc1cccc(CC(=O)c2ccc(-c3cccc(OC)c3)s2)c1 is 17
